# targetUnderTest: Free fatty acid receptor 1 (Homo sapiens)
# Sequence (O14842 whole entry): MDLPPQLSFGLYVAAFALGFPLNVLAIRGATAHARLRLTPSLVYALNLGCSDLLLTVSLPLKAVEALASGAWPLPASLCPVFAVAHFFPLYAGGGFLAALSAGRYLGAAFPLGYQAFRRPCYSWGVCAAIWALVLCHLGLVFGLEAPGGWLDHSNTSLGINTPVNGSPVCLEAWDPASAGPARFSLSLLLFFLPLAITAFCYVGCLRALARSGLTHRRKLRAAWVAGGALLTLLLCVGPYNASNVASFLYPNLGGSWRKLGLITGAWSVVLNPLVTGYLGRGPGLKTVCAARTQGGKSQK
# testName: Agonist activity at human GPR40
readoutLabel: pEC50
// returns pEC50 (minus log10 of molar concentration), number only

Sample O=C(O)CCc1cc(F)c(OCc2c(C(F)(F)F)ccn2-c2ccc(Cl)cc2)c(F)c1 — what was its pEC50?
5.48

---

# testName: AUClast in dog at 5 mg/kg, po by LC-MS/MS analysis
# Type: ADME, organism-based, Canis lupus familiaris
# Parameters: dose 5 mg/kg, route oral, time 0 - last
# testParameters: in vivo
readoutLabel: AUC(0-t) (ng·h/mL)
Your answer is read as ng·h/mL, so omit the unit and give the number.

Sample O=C(O)CCc1cc(F)c(OCc2c(C(F)(F)F)ccn2-c2ccc(Cl)cc2)c(F)c1 — what was its AUC(0-t)?
47900
